B1: POU domain, class 3, transcription factor 1, residues 247 to 324; numbered along this chain, Q03052 (parent)
chain: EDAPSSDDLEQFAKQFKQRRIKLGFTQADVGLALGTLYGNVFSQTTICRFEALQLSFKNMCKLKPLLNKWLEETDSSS

# Variants of: B1
# method notes: abundance fitness (aPCA) (normalised: wild type 0, dead -1); higher = more abundant; growth selection in yeast, the domain comes from the species named
# experimental setup: Homo sapiens
Recorded abundance fitness values for a group of variants are listed next.
assay metric: abundance fitness

In [3]: df
Out[3]:
    mutant_id  measured
 0       K69Q     -0.02
 1       K58G    -0.074
 2       C48K    -0.011
 3       K58D    -0.185
 4       T36A    -0.162
 5       L23V    -0.686
 6       R20L    -0.637
 7       L23W    -0.224
 8       L32N    -0.371
 9       S43M     -0.63
10       F42W    -0.191
11       P65M    -0.332
12       K58P      0.13
13       F25P    -0.965
14       L55K    -0.535
15       F57M    -0.048
16       N40Q     0.103
17       D29N    -0.729
18       A33C    -0.474
19       A52D     0.041
20       C48E     0.174
21       W70M    -0.756
22       K69T    -0.251
23       G31L    -0.509
24       S78C      0.08
25       G31K    -0.702
26       Y38H    -0.014
27       L37Y     0.175
28       S78P    -0.019
29       N68I    -0.028
30       S43V    -0.835
31       L53Y    -0.112
32       F42V     0.064
33       K64A    -0.199
34       K22R    -0.035
35       M60R    -0.826
36       L32F     0.186
